The reported numbers originate from paper PMC4648528.

# TESTED_TARGET: human 20S proteasome
# Construct: isolated from human erythrocytes (Enzo Life Sciences); purchased Enzo Life Sciences; host or cells: human erythrocytes
# EXPERIMENTAL_PROTOCOL: ChT-L peptidase activity of SDS-activated human 20S proteasome (SucLLVY-MCA)
# Format: biochemical
# CONDITION_SET: ChT-L activity; average of repetitions; read-out: Calculated IC50, Average
REPORTED_METRIC: IC50

human 20S proteasome assay, compound N=C(N)NCCC[C@H](NC(=O)CN)C(=O)N[C@@H](CCCCN)C(=O)N[C@@H](CCCCN)C(=O)N[C@@H](CCCNC(=N)N)C(=O)N[C@@H](CCCNC(=N)N)C(=O)N[C@@H](CCC(N)=O)C(=O)N1Cc2ccccc2C[C@H]1C(=O)N1[C@@H](C(=O)N[C@@H](CCCNC(=N)N)C(=O)N2CCC[C@H]2C(=O)N[C@@H](CO)C(=O)O)C[C@H]2CCCC[C@H]21 [Tat1_8-9TOD] , recorded IC50 = 122 nM

----------
# TESTED_TARGET: human 20S proteasome
# Construct: isolated from human erythrocytes (Enzo Life Sciences); purchased Enzo Life Sciences; host or cells: human erythrocytes
# EXPERIMENTAL_PROTOCOL: ChT-L peptidase activity of SDS-activated human 20S proteasome (SucLLVY-MCA)
# Assay type: biochemical
# CONDITION_SET: ChT-L activity; Repetition 3; read-out: Calculated IC50
Ends that are not written are not given here.
REPORTED_METRIC: IC50 (µM)
State just the number; it will be interpreted in µM.

# value of IC50, human 20S proteasome, item GRKAARQAARPS [Tat1_A4-5,8–9] = 4.43

----------
# TESTED_TARGET: human 20S proteasome
# Construct: isolated from human erythrocytes (Enzo Life Sciences); purchased Enzo Life Sciences; host or cells: human erythrocytes
# EXPERIMENTAL_PROTOCOL: ChT-L peptidase activity of SDS-activated human 20S proteasome (SucLLVY-MCA)
# Assay type: biochemical
# CONDITION_SET: ChT-L activity; average of repetitions; read-out: Calculated IC50, Average
# Description: Influence of the designed peptides on catalytic properties of the 20S proteasome was tested using the proteasome at a final concentration of 1.5 nM, isolated from human erythrocytes (Enzo Life Sciences) and activated with 0.01% sodium dodecyl sulfate. […] The release of an aminomethyl coumarin (AMC) group was followed by measuring fluorescence emission at 460 nm in 2 min. intervals for up to 60 min. at 37°C (Fluoroskan Ascent). […]
Ends that are not written are not given here.
Each entry below carries its reported pIC50.
On this scale, pIC50 is minus log10 of a concentration expressed in M (mol/L).

{"RESIDUE_CODES": "GRKAAAQRRRPS [Tat1_A4-6]", "TESTED_TARGET": "human 20S proteasome", "pIC50": 5.76}
{"RESIDUE_CODES": "GRKKRRAAARPS [Tat1_A7-9]", "TESTED_TARGET": "human 20S proteasome", "pIC50": 6.55}
{"RESIDUE_CODES": "GRKKRAAARRPS [Tat1_A6-8]", "TESTED_TARGET": "human 20S proteasome", "pIC50": 6.47}
{"RESIDUE_CODES": "GRKKAAQRRRPS [Tat1_A5-6]", "TESTED_TARGET": "human 20S proteasome", "pIC50": 6.49}
{"RESIDUE_CODES": "GRAARRQRRRPS [Tat1_A3-4]", "TESTED_TARGET": "human 20S proteasome", "pIC50": 6.61}
{"RESIDUE_CODES": "GRAAAAQRRRPS [Tat1_A3-6]", "TESTED_TARGET": "human 20S proteasome", "pIC50": 5.37}
{"RESIDUE_CODES": "GRKKRRQAAAPS [Tat1_A8-10]", "TESTED_TARGET": "human 20S proteasome", "pIC50": 5.60}
{"RESIDUE_CODES": "GRKKAAARRRPS [Tat1_A5-7]", "TESTED_TARGET": "human 20S proteasome", "pIC50": 6.50}
{"RESIDUE_CODES": "GRAAARQRRRPS [Tat1_A3-5]", "TESTED_TARGET": "human 20S proteasome", "pIC50": 5.80}
{"RESIDUE_CODES": "GRKKRRAAAAPS [Tat1_A7-10]", "TESTED_TARGET": "human 20S proteasome", "pIC50": 5.55}

Record GRKKARAAARPS [Tat1_A5,7–9] . Reported pIC50: 5.82

GRKAARQRRRPS [Tat1_A4-5] has a reported pIC50 of 6.58
